Test system: T-47D breast
procedure summary: NCI tumour cell line growth inhibition, 48 h; in the data active = GI50 below about 0.43 µM; inactive = the rest
Assign a class; possible classes are active, inactive

Please review the entries below; each comes with its answer.
{"columns": ["compound", "class label"],
 "data": [
  ["COc1cccc(NCc2nnc(Nc3ccc(Cl)cc3)c3ccccc23)c1", "inactive"],
  ["C=C1C(=O)O[C@H]2[C@H]1CC/C(COC(=O)/C=C\\C(=O)NCc1ccc(Cn3c(=O)sn(-c4ccc(C#N)cc4)c3=O)cc1)=C\\CC[C@@]1(C)O[C@@H]21", "inactive"]
]}

stdin: Look up the recorded call for CCCNC(=S)N/N=C(\C)c1ccccn1 in this test.
stdout: active

stdin: Also, Cc1cc(C2CCCCC2)n(O)c(=O)c1 please.
stdout: inactive

stdin: Also, COc1ccc(C2CC(=O)c3c(O)c(OC)c(OC)c(OC)c3O2)c(O)c1 (stereo not given) please.
stdout: active
